The values you see were collected from the Human Domainome abundance scans (Beltran et al. 2025).

B1: POU domain, class 4, transcription factor 1, residues 266 to 347; numbered along this chain, Q01851 (parent)
chain: RELEAFAERFKQRRIKLGVTQADVGSALANLKIPGVGSLSQSTICRFESLTLSHNNMIALKPILQAWLEEAEGAQREKMNKP

- Variants of: B1
- Test Summary: abundance fitness (aPCA) (normalised: wild type 0, dead -1); higher = more abundant; growth selection in yeast, the domain comes from the species named
- Settings: Homo sapiens
Class boundaries, taken from values of abundance fitness, are as follows: class 0 = under -0.006, class 1 = from -0.006 up to 0.02, class 2 = 0.02 and over

RELEAFAERFKQRRIKLGVTQADVGSALANLKIPGVGSLSQSTICRFESSTLSHNNMIALKPILQAWLEEAEGAQREKMNKP [L50S] | class 1
RELEAFAERFKQRRIKLGVTQADVGSALANLKIPGVGSLSQSTICRFESLTLSHNNMIALKPILQAWLEEAEGLQREKMNKP [A74L] | class 1

Switching to the query record.
Category of RELEAFAERFKQRRIKLGVTQADVGSALANLKIPGVGSLSQSTICRFESLTLSHNNMIALKPILQAWLEEMEGAQREKMNKP [A71M] , please.
class 1
